Assay: Solubility of HXM in pure triglycerides
Assay type: physicochemical
Conditions: organic solvent or mixture
Metric: solubility

INPUT: Would you kindly share the measured solubility for CN(C)c1nc(N(C)C)nc(N(C)C)n1 ?
OUTPUT: > 50 mg/mL
